# experimental-parameters: 308.15 K; 101.3 kPa; Liquid
measured-property: mass density (kg/m3)
Answers are plain numbers, in kg/m3.

Reference set (5 entries):
CCCCCCCCC : 707.41
CCCCCCCCCCCC : 738.63
CCCCCCCCCC : 720.24
Cc1ccccc1O : 1032.73
CCCCCCCCCCC : 729.13

Prompt: Suppose we examine the compound Cc1cccc(O)c1 ; what mass density value has been reported?
Response: 1022.02

---

# procedure-summary: refractive index (Na D-line) (dimensionless)
# experimental-parameters: 293.15 K; 101.33 kPa; Liquid; Standard Abbe refractometry
I'd appreciate it if you could supply refractive index values for the items below.
Numbers only.

Reference set (3 entries):
CCCCCCCCCCC : 1.4164
Cc1cccc(O)c1 : 1.5401
CCCCCCCCCCCC : 1.421

Prompt: Suppose we examine the molecule CCCCCCCCC ; what refractive index value has been reported?
Response: 1.4058
